# credit: ChEMBL document CHEMBL1150189

- Species: Mus musculus
- procedure_summary: Binding affinity to mouse Monoclonal antibody DIG 64.2B.5 by ELISA relative to digoxin
measurement_kind: Ratio IC50
A bare number is all that is needed in reply.

These solved cases illustrate the format of a correct answer.
# smiles_code, measurement_kind, measured_value
data = [
    ("CC(=O)O[C@H]1C[C@H](O[C@H]2[C@@H](O)C[C@H](O[C@H]3[C@@H](O)C[C@H](O[C@H]4CC[C@@]5(C)[C@H](CC[C@@H]6[C@@H]5C[C@@H](O)[C@]5(C)[C@@H](C7=CC(=O)OC7)CC[C@]65O)C4)O[C@@H]3C)O[C@@H]2C)O[C@H](C)[C@H]1O[C@@H]1O[C@H](CO)[C@@H](O)[C@H](O)[C@H]1O", "Ratio IC50", 1.2),
    ("CO[C@@H]1[C@@H](O)[C@H](O[C@H]2CC[C@@]3(C)[C@H](CC[C@@H]4[C@@H]3CC[C@]3(C)[C@@H](C5=CC(=O)OC5)[C@@H](O)C[C@]43O)C2)O[C@H](C)[C@@H]1O[C@@H]1O[C@H](CO)[C@@H](O)[C@H](O)[C@H]1O", "Ratio IC50", 16000),
    ("C[C@]12CC[C@H](O)C[C@H]1CC[C@@H]1[C@@H]2C[C@@H](O)[C@]2(C)[C@@H](C3=CC(=O)OC3)CC[C@]12O", "Ratio IC50", 1.2),
    ("C[C@H]1O[C@@H](O[C@H]2[C@@H](O)C[C@H](O[C@H]3[C@@H](O)C[C@H](O[C@H]4CC[C@@]5(C)[C@H](CC[C@@H]6[C@@H]5CC[C@]5(C)[C@@H](C7=CC(=O)OC7)[C@@H](O)C[C@]65O)C4)O[C@@H]3C)O[C@@H]2C)C[C@H](O)[C@@H]1O", "Ratio IC50", 46),
    ("C[C@]12CC[C@H](O)C[C@H]1CC[C@@H]1[C@@H]2CC[C@]2(C)[C@@H](C3=CC(=O)OC3)CC[C@]12O", "Ratio IC50", 23000),
    ("C[C@H]1O[C@@H](O[C@H]2CC[C@@]3(C)[C@H](CC[C@@H]4[C@@H]3C[C@@H](O)[C@]3(C)[C@@H](C5=CC(=O)OC5)CC[C@]43O)C2)C[C@H](O)[C@@H]1O[C@H]1C[C@H](O)[C@H](O[C@H]2C[C@H](O)[C@H](O[C@@H]3O[C@H](CO)[C@@H](O)[C@H](O)[C@H]3O)[C@@H](C)O2)[C@@H](C)O1", "Ratio IC50", 1.8),
]

# next compound below
Tell us which Ratio IC50 value is on record for "C[C@H]1O[C@@H](O[C@H]2[C@@H](O)C[C@H](O[C@H]3[C@@H](O)C[C@H](O[C@H]4CC[C@@]5(C)[C@H](CC[C@@H]6[C@@H]5CC[C@]5(C)[C@@H](C7=CC(=O)OC7)CC[C@]65O)C4)O[C@@H]3C)O[C@@H]2C)C[C@H](O)[C@@H]1O" 2800
